test system: rice plant; experiment: Test Example 7, flooded paddy pot dripping, phytotoxicity to rice plant; type: in vivo; details: 5 g/are, 3 weeks; note: ranges in brackets are in %
Recorded Phytotoxicity, Rice plant by entry

The cases that follow already have their Phytotoxicity, Rice plant on record.
compound: CCCCCCCCOc1cc(N2C(=O)C3=C(CCCC3)C2=O)c(F)cc1Cl [Compound No. 10]
endpoint result: 0 (0-9)
--
compound: O=C1C2=C(CCCC2)C(=O)N1c1ccc(Cl)cc1F [A, reference compound]
endpoint result: 1 (10-29)
--
compound: CCCCCCOc1cc(N2C(=O)C3=C(CCCC3)C2=O)c(F)cc1Cl [compound 8]
endpoint result: 0 (0-9)
--
compound: CC(C)CCOc1cc(N2C(=O)C3=C(CCCC3)C2=O)c(F)cc1Cl [compound 11]
endpoint result: 0 (0-9)
--
compound: CCCCCOc1cc(N2C(=O)C3=C(CCCC3)C2=O)c(F)cc1Cl [Compound No. 7]
endpoint result: 0 (0-9)

Q: What value of Phytotoxicity, Rice plant on rice plant does CCCCCCCOc1cc(N2C(=O)C3=C(CCCC3)C2=O)c(F)cc1Cl [compound 9] have?
Ans: 0 (0-9)

---

tested on: morningglory; assay: Test Example 4, pre-emergence treatment, herbicidal activity; assay type: in vivo; settings: 10 g/are, 20 days; note: ranges in brackets are in %
measured endpoint: Herbicidal activity, Morningglory

molecule: CCOc1cc(N2C(=O)C3=C(CCCC3)C2=O)c(F)cc1Br [compound 13]
endpoint result: 5 (0)

Continue with the next molecule.
Q: Need Herbicidal activity, Morningglory of CCCOc1cc(N2C(=O)C3=C(CCCC3)C2=O)c(F)cc1Br [compound 14] , thanks.
Ans: 4 (1-10)

---

test system: arrowhead; assay: Test Example 7, flooded paddy pot dripping, herbicidal activity; type: in vivo, Sagittaria pygmaea; conditions: 2.5 g/are, 3 weeks; note: ranges in brackets are in %
Recorded Herbicidal activity, Allowhead by entry

The cases that follow already have their Herbicidal activity, Allowhead on record.
compound: CCCCCCOc1cc(N2C(=O)C3=C(CCCC3)C2=O)c(F)cc1Cl
system: arrowhead
measured endpoint: Herbicidal activity, Allowhead
endpoint result: 5 (90-100)
//
compound: CCCCCCCCOc1cc(N2C(=O)C3=C(CCCC3)C2=O)c(F)cc1Cl
system: arrowhead
measured endpoint: Herbicidal activity, Allowhead
endpoint result: 4 (70-89)
//
compound: CCCCCOc1cc(N2C(=O)C3=C(CCCC3)C2=O)c(F)cc1Cl
system: arrowhead
measured endpoint: Herbicidal activity, Allowhead
endpoint result: 4 (70-89)
//
compound: O=C1C2=C(CCCC2)C(=O)N1c1ccc(Cl)cc1F [A, reference compound]
system: arrowhead
measured endpoint: Herbicidal activity, Allowhead
endpoint result: 2 (30-49)
//
compound: CC(C)CCOc1cc(N2C(=O)C3=C(CCCC3)C2=O)c(F)cc1Cl
system: arrowhead
measured endpoint: Herbicidal activity, Allowhead
endpoint result: 4 (70-89)

Continue with the next compound.
Q: Need Herbicidal activity, Allowhead of `CCCCCCCOc1cc(N2C(=O)C3=C(CCCC3)C2=O)c(F)cc1Cl` , thanks.
Ans: 4 (70-89)

---

Recorded Herbicidal activity, Wild mustard by entry
tested on: wild mustard; experiment: Test Example 1, foliar treatment, herbicidal activity; format: in vivo, Brassica kaber; conditions: 5 g/are, 3 weeks

The cases that follow already have their Herbicidal activity, Wild mustard on record.
molecule: CC(C)COc1cc(N2C(=O)C3=C(CCCC3)C2=O)c(F)cc1Cl
Herbicidal activity, Wild mustard: 5 (0)

molecule: CCOc1cc(N2C(=O)C3=C(CCCC3)C2=O)c(F)cc1Cl
Herbicidal activity, Wild mustard: 5 (0)

Q: What value of Herbicidal activity, Wild mustard on wild mustard does CCC(C)Oc1cc(N2C(=O)C3=C(CCCC3)C2=O)c(F)cc1Cl (stereo not drawn) have?
Ans: 5 (0)
